# TARGET_DESC: hAM1R (human, UniProt Q16602)
# ASSAY_TEXT: cell-based or functional assay
Bridge positions count the residues as written; N and C are the ends. Square brackets hold non-standard residues; d marks the D form. Ends that are not written are not given here. Hyp = O=C(O)[C@@H]1C[C@@H](O)CN1
RECORDED_ENDPOINT: hAM1R EC50 (cAMP) (µM)
// note: answer is a bare numeric in µM

The recorded hAM1R EC50 (cAMP) for GCRFGTCTVQRLAHFLYQFTDKDKDNVAPRTKVGPQGY [SEQ ID NO: 369] is 0.00248

The recorded hAM1R EC50 (cAMP) for GCRFGTCTVQRLAHQIYQFTDKDKDNVAPRTKVSPNG[Hyp]-NH2 (disulfide 2-7 (inferred); ends not checked) [SEQ ID NO: 134] is 2.98

The recorded hAM1R EC50 (cAMP) for GCRFGTCTVQRLAHQIYQFTDKDKDNVAPRTKVGPQGY [SEQ ID NO: 368] is 0.000997

The recorded hAM1R EC50 (cAMP) for GCRFGTCTVQRLAHQIYQFTDKDKDNVAPRTKIGPQG[Hyp]-NH2 (disulfide 2-7 (inferred); ends not checked) [SEQ ID NO: 111] is 2.98
